test system: SK-MEL-5; assay: NCI tumour cell line growth inhibition, 48 h
Activity calls are given as the source filed them. Cut-off read from the data, not from the text of the source: active = GI50 up to about 1.1 µM and inactive = higher.
Reported GI50 values follow for various compounds

Query: Entry CC(=O)Oc1c(C)cc2c(c1C)C(C)(C)CN2C(=O)C(C)(C)C : reported GI50 = ?
Reply: 42.3 µM (inactive)

Query: Entry COc1ccc2nc(NC(=O)/C(C#N)=C/c3ccccc3)sc2c1 : reported GI50 = ?
Reply: 20.8 µM (inactive)

Query: Entry Cc1cc2ccccc2n2c1nc1ccccc12 : reported GI50 = ?
Reply: > 100 µM (inactive)

---

tested on: PC-3; assay: NCI tumour cell line growth inhibition, 48 h
Active and inactive are the calls of the source. Cut-off read from the data, not from the text of the source: active = GI50 up to about 1.1 µM and inactive = higher.
Reported GI50 values follow for various compounds

Take a look at these entries with their results.
Compound: CC(C)(C)C1=NN=C2c3ccccc3C(=O)C21 (centres undefined)
GI50: 35.6 µM (inactive)
--
Compound: O=C(Nc1ccccc1)c1cc2c(cc1Cl)Sc1nccn1S2(=O)=O
GI50: 20.1 µM (inactive)
--
Compound: N#Cc1cc(C#N)c(Cl)nc1N
GI50: > 10 µM (inactive)

Query: Entry CC(C)c1ccc(NC(=S)NC(=O)c2ccccc2)cc1 : reported GI50 = ?
Reply: 36.5 µM (inactive)

Query: Entry CC(C)CNC(=O)c1c(NC(=O)c2ccccc2)sc2[nH]c(=O)n(-c3ccccc3)c(=O)c12 : reported GI50 = ?
Reply: > 100 µM (inactive)

Query: Entry C[C@@H]1C[C@@]2(O[C@@H]2C)C(=O)O[C@@H]2CCN3CC=C(COC(=O)[C@]1(C)O)[C@H]23 : reported GI50 = ?
Reply: > 100 µM (inactive)

---

tested on: BT-549; assay: NCI tumour cell line growth inhibition, 48 h
Activity calls are given as the source filed them. Cut-off read from the data, not from the text of the source: active = GI50 up to about 1.1 µM and inactive = higher.
// allowed return values: active, inactive

Query: Outcome logged for CCOC(=O)/C=C(\C(=O)OCC)n1cc(C)c(=O)n(Cc2cnnn2COCCOC(C)=O)c1=O in this assay:
Reply: inactive

Query: Outcome logged for COc1cc2c(cc1OCCCN1CCN(C)CC1)N=C[C@@H]1CCCN1C2=O in this assay:
Reply: inactive

Query: Outcome logged for CC(=O)c1c(O)cc(O)c(-c2c(C)cc(O)c3c2C(=O)c2cccc(O)c2C3=O)c1O in this assay:
Reply: inactive

Query: Outcome logged for COc1ccc2c(c1)-c1nn(CCN(C)C)c3ccc(C(=O)NCCCN(C)CCCNC(=O)c4ccc5c6c(c7cc(OC)ccc7nc46)NN5CCN(C)C)c(c13)N2 in this assay:
Reply: active

---

Reported GI50 values follow for various molecules
test system: SK-OV-3; assay: NCI tumour cell line growth inhibition, 48 h
Calls of active or inactive are those of the source. No stated cut-off is given here; in the data, active = GI50 up to about 1.1 µM and inactive = higher.

Smiles notation: Cc1csc(NNC(=O)Nc2ccccc2)n1
Experimental result: > 100 µM (inactive)

Query: Entry CC(C)Oc1c(C2(c3ccccc3)SCCCS2)c(=O)c1=O : reported GI50 = ?
Reply: > 100 µM (inactive)

Query: Entry COC1=CC(=O)C2=C(C[C@@]3(C)C(=C2)C(CO)=CC[C@H]3O)C1=O : reported GI50 = ?
Reply: 88.5 µM (inactive)

Query: Entry ClC(Cl)=C1C(=C(Cl)Cl)C(Cl)(Cl)C1(Cl)Cl : reported GI50 = ?
Reply: 14.9 µM (inactive)

---

Reported GI50 values follow for various molecules
test system: KM-20L2; assay: NCI tumour cell line growth inhibition, 48 h
Activity calls are given as the source filed them. Rule as the data show it: active = GI50 up to about 1.1 µM and inactive = higher.

Take a look at these entries with their results.
Molecule: CC(=O)c1cccc(NC(=O)C(=O)C(C(=O)NN)c2ccccc2)c1 (configuration not stated)
System tested: KM-20L2
GI50: > 100 µM (inactive)
--
Molecule: N#CC(C#N)=C(C(C#N)C#N)C(C#N)C#N
System tested: KM-20L2
GI50: > 100 µM (inactive)

Query: Entry CC(C)C(Sc1nc(-c2ccccc2)c(-c2ccccc2)[nH]1)C(=O)NNC(=S)Nc1ccccc1 (configuration not stated) : reported GI50 = ?
Reply: 18.4 µM (inactive)

Query: Entry O=C1c2ccccc2S[C@@H](O)[C@@H]2CCCN12 : reported GI50 = ?
Reply: > 100 µM (inactive)

Query: Entry Cc1cc(S(=O)(=O)O)c(NC(=O)C(=O)C2C=CCS2(=O)=O)cc1Cl (configuration not stated) : reported GI50 = ?
Reply: > 100 µM (inactive)

Query: Entry Cc1cc(Cl)ccc1NC(=O)C(=O)C(C(=O)c1ccc2ccccc2c1)C1OC(=O)c2ccccc21 (configuration not stated) : reported GI50 = ?
Reply: 24 µM (inactive)

Query: Entry CCN(CC)C(=O)c1c(N2CCOCC2)cc(N(CC)CC)oc1=O : reported GI50 = ?
Reply: > 100 µM (inactive)

---

test system: SF-268; experiment: NCI tumour cell line growth inhibition, 48 h
Active and inactive are the calls of the source. Cut-off read from the data, not from the text of the source: active = GI50 up to about 1.1 µM and inactive = higher.
// allowed return values: active, inactive

Previously resolved entries follow.
Molecule: COc1ccc(-c2c3c(nc4nc(SC)nc(SC)c24)CCCC3)cc1OC
Label class: inactive
//
Molecule: O=C1CSC(C(/N=N/c2ccc(Cl)cc2)c2nc3ccccc3[nH]2)=N1 (stereo unspecified)
Label class: inactive
//
Molecule: Cc1ccnc2nc(-c3ccc(Cl)cc3)cc(O)c12
Label class: inactive
//
Molecule: CCC12C[N+]3([O-])CCc4c([nH]c5ccccc45)C(C(=O)OC)(c4cc5c(cc4OC)N(C)C4C(O)(C(=O)OC)C(OC(C)=O)C6(CC)C=CCN7CCC54C76)CC(C3)C1O2 (stereo unspecified)
Label class: active
//
Molecule: COc1cc2c(cc1OCCCN1CCN(C)CC1)N=C[C@@H]1CCCN1C2=O
Label class: inactive

Kindly review the next molecule as well.
Query: Outcome logged for CC(C)Oc1c(C2(c3ccccc3)SCCCS2)c(=O)c1=O in this assay:
Reply: inactive

---

Reported GI50 values follow for various compounds
tested on: NCI-H23; assay: NCI tumour cell line growth inhibition, 48 h
Activity calls are given as the source filed them. Cut-off read from the data, not from the text of the source: active = GI50 up to about 1.1 µM and inactive = higher.

Take a look at these entries with their results.
Compound: CC1CCC2(O)C3(C)CC4(O)OC2(C1O)C1(O)C3(O)C(OC(=O)c2ccc[nH]2)C(O)(C(C)C)C41C (stereo not given)
GI50: > 100 µM (inactive)
//
Compound: COc1ccccc1/[N+]([O-])=C/c1ccccc1OC(=S)S
GI50: 28.2 µM (inactive)
//
Compound: CCCC(=O)/C=C/S/C=C/C(=O)CCC
GI50: 2.84 µM (inactive)
//
Compound: Cc1cc(NS(=O)(=O)c2ccc(NC(=O)c3cccc4c(Nc5ccc(S(=O)(=O)N=C(N)N)cc5)c5ccccc5nc34)cc2)no1
GI50: > 100 µM (inactive)

Query: Entry CCn1cc(C(=O)O)c(=O)c2cc(F)c(N3CCNCC3)nc21 : reported GI50 = ?
Reply: 31.1 µM (inactive)

Query: Entry Clc1ccc(C2c3ccccc3-c3nc4ccccc4n32)cc1 (stereo not given) : reported GI50 = ?
Reply: 15.5 µM (inactive)

Query: Entry COc1ccc(/C=C/C(=O)C(C)(C)Br)cc1 : reported GI50 = ?
Reply: 2.25 µM (inactive)

Query: Entry COC1C(=[N+]=[N-])C(=O)NC(=O)N1C1OC(COC(c2ccccc2)(c2ccccc2)c2ccccc2)C(O)C1O (stereo not given) : reported GI50 = ?
Reply: 18.2 µM (inactive)

Query: Entry Cc1ccc(-n2cnc3c(N/N=C4\SCC(=O)N4c4ccccc4)ncnc32)cc1 : reported GI50 = ?
Reply: 3.37 µM (inactive)

Query: Entry Cc1ccc(S(=O)(=O)Oc2coc(CO)cc2=O)cc1 : reported GI50 = ?
Reply: 16.8 µM (inactive)

---

test system: NCI-H522; assay: NCI tumour cell line growth inhibition, 48 h
Active and inactive are the calls of the source. No stated cut-off is given here; in the data, active = GI50 up to about 1.1 µM and inactive = higher.
// allowed return values: active, inactive

Previously resolved entries follow.
Compound: CC(=O)N1N=C(c2ccc3ccccc3c2O)CC1c1cccs1 (stereo not given)
Label class: inactive

Compound: C/C(=N\NC(N)=S)c1nc2cccnc2[nH]1
Label class: inactive

Compound: O=P(O)(O)CN1CCNCCN(CP(=O)(O)O)CCNCC1
Label class: inactive

Compound: OC(CC(CC(O)(C(F)(F)Cl)C(F)(F)Cl)=NNc1ccccc1)(C(F)(F)Cl)C(F)(F)Cl
Label class: inactive

Compound: COc1cc([C@@H]2c3cc4c(cc3[C@@H](OC3OC5COC(C)OC5C(OC(=O)CN5CCN(C)CC5)C3OC(=O)CN3CCN(C)CC3)C3COC(=O)[C@@H]32)OCO4)cc(OC)c1OC(=O)CN1CCN(C)CC1 (stereo not given in full)
Label class: inactive

Query: Outcome logged for CC1(Cc2ccccc2)NC(=S)NC1=O (stereo not given) in this assay:
Reply: inactive

Query: Outcome logged for CN(CC(=O)O)c1ncc2c(n1)-c1ccccc1OC2 in this assay:
Reply: inactive

Query: Outcome logged for Cc1ccnc2c1ccc1nc3ccccc3n12 in this assay:
Reply: inactive

Query: Outcome logged for COc1ccc(C2C=C(c3ccc4c(c3)OCO4)Oc3c2c(=O)oc2ccccc32)cc1OC (stereo not given) in this assay:
Reply: active

Query: Outcome logged for CC(C)(Br)C(Br)CCC1(C(Br)CBr)CO1 (stereo not given) in this assay:
Reply: inactive
